Each entry below carries its reported 8OG:A repair function score.
B1: library; numbered along this chain (parent)
chain: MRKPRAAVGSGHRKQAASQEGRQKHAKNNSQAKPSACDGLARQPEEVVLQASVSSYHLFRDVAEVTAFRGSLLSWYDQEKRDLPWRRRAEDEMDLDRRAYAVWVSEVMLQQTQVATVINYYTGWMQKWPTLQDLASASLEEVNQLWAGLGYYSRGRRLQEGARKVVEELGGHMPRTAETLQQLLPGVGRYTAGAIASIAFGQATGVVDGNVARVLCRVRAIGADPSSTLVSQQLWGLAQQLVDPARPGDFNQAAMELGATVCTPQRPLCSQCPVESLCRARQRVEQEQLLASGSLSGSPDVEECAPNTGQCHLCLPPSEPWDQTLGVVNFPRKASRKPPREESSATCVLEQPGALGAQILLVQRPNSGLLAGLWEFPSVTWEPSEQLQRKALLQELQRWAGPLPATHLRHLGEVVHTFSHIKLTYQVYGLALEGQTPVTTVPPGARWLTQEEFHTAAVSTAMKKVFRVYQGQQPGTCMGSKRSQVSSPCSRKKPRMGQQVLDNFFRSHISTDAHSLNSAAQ

Variants of: B1
Experimental Details: 8OG:A repair function score (normalized; synonymous = 0, nonsense = -1) (normalized log-likelihood score); higher = more repair activity (WT-like);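 note: cells sorted at 72 h after reporter transfection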
Applied Conditions: with 8OG:A DNA repair reporter (GFP) in HEK-293 MUTYH KO cells
Measurement Label: 8OG:A repair function score

{"columns": ["Mutation Id", "Recorded Result"],
 "data": [
  ["H508R", -0.0128],
  ["Y428L", -0.828],
  ["C278R", -1.27],
  ["R217N", -1.04],
  ["L516S", 0.0241],
  ["S490Q", 0.0011],
  ["L139A", -0.241],
  ["C489G", 0.00751],
  ["T122Q", 0.0683],
  ["F200H", -0.308],
  ["T176L", -0.174],
  ["Y425M", 0.236],
  ["N307M", -0.145],
  ["T228Y", -0.0271],
  ["D133L", -0.0567]
]}
